- TARGET_ENTITY: TPP-1990 (hTNFRSF12Aaa28-80-L65Q-hIgG1-Fc) (human)
- PROTOCOL_SUMMARY: ELISA, TWEAKR-Fc coated 62 ng/ml, biotin-IgG titrated; + means IC50 1 to 150 pM;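 further: biotinylated IgG binding to immobilized TWEAKR-Fc muteins, detected with Streptavidin-HRP and Amplex Red, IC50 derived from fitted dose-response curves of twofold serial dilutions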
MEASURED_QUANTITY: binding result

# BINDER, RESULT
measured = [
    ("TPP-2090 (antibody, human IgG1, kappa, V domains shown, Human IgG1) VH: EVQLLESGGGLVQPGGSLRLSCAASGFTFSPYPMIWVRQAPGKGLEWVSYISPSGGSTHYADSVKGRFTISRDNSKNTLYLQMNSLRAEDTAVYYCARGGDTYFDYFDYWGQGTLVTVSS VL: DIQMTQSPSSLSASVGDRVTITCRASQSISGYLNWYQQKPGKAPKLLIYQASSLQSGVPSRFSGSGSGTDFTLTISSLQPEDFATYYCQQSYTSPFITFGQGTKVEIKR", "binds"),
]
